Attribute: self-cleavage kobs at 40 uM GlcN6P
B1: glmS ribozyme (parent)
chain: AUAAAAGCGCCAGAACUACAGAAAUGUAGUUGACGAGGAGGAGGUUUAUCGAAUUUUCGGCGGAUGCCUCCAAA

variants of: B1; experiment: self-cleavage kobs at 40 uM GlcN6P; higher = faster cleavage; RNA array; settings: with glucosamine-6-phosphate
Fewer inactive variants are shown than the library holds.

In [3]: df
Out[3]:
                            record_sequence  reported_result
0  AUAAAAGCGCCAGAACUACAGAAAUGUAGUUGACGAGGAGGAGGUUUCUUGAAUUUUCGGCGGAUGCCUCCAAA [A48C C50U]      < 1e-05 s⁻¹
1  AUAAAAGCGCCAGAACUACAGAAAUGUAGUGGACGAGGAGGAGGUUUAUCGAAUUUUCGGCGGAUGCCUCAAAA [U31G C71A]     0.000103 s⁻¹
2  AUAAAUGCGCCAGAACUACAGAAAUGUAGUUGACGAGGAGGAAGGUUAUCGAAUUUACUGCGGAUGCCUCCAAA [A6U G43A U45G U57A G59U]      < 1e-05 s⁻¹

Record request: self-cleavage kobs at 40 uM GlcN6P value, item AUAAAAGCGCCAGAACUACAGAAAUGUAGUUGACGAGGAGGAGGUUUCUCGAAUUUUCUGCGGAUGACUCCAAA [A48C G59U C67A] < 1e-05 s⁻¹

Also check AUAAAAGCGCCAGACCUACAGAAAUGUAGUUGACGAGGAGGAGGUUUAUCGAAUUUUCGGCGGAUGACUCCAAA [A15C C67A] 5.14e-05 s⁻¹

Also check AUAAAAGCGCCACAACUACAGAAAUGUAGUUGACGAGGAGGAGGUUUAUCGAAUUUUCGGAGGAUGCCUCUAAA [G13C C61A C71U] < 1e-05 s⁻¹

Also check AUAAAAGCGCCAGAACUACAGAAAUGUAGUUGACGAGGAUGAGGUUUAUCGAAUUUUCGGCGUAUGCCUCCAAA [G40U G63U] < 1e-05 s⁻¹

Also check AUAAAAGCGCCAGAACUACAGAAAUGUAGUUGACGAGGAGGAGGUUUAUCGAAUUUUUGACGGAUGCCUCCAAA [C58U G60A] < 1e-05 s⁻¹

Also check AUAAAAGCGCCAGAACUACAGAAAUGUAGUUGACGAGGAGGAGGUUUGUCGAAUUUUCGGCGGAUGCAUCCAAA [A48G C68A] < 1e-05 s⁻¹

Also check AUAAAAGCGCCAGAACUACAGAAAUGUAGUUGACGAGGAGGGGGAUUAUCGAAUUUUCGGCGGAUGCCUCCAAA [A42G U45A] 0.00181 s⁻¹

This collection of values is drawn from the supplement of paper PMC7125110.
